- System Under Test: T1, recombinant human IL1RAP ECD (human, UniProt Q9NPH3 21-367)
- T1 construct: His-tagged; also called hIL1RAP-ECD; rhuIL1RAP
- T1 sequence: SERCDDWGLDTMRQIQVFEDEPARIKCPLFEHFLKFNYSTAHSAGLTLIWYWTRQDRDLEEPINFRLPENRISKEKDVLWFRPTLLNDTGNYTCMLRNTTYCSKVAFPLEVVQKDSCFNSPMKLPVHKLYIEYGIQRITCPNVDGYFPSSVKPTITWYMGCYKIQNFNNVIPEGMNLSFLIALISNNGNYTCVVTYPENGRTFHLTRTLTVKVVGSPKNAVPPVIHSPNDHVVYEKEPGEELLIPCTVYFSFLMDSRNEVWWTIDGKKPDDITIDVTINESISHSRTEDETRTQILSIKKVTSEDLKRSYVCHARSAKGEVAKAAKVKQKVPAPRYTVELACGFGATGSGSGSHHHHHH
- Experiment Description: SPR (ProteOn)
Assay Metric: koff (s⁻¹)

| Binder | Assay Metric | Readout Unit | Meas Value |
| --- | --- | --- | --- |
| IAPB64 (antibody, human IgG4 S228P, lambda, F234A L235A, V domains shown, IgG4-PAA; whole chains; also called IAPB54-LC-C91S) VH: QVQLVQSGSELKKPGASVKVSCKASGYTFNTYAMNWVRQAPGQGLEWMGWINTNTGNPTYAQGFTGRFVFSLDTSVSTAYLQISSLKAEDTAVYYCARRYFDWLLGAFDIWGQGTMVTVSS VL: QSALTQPRSVSGSPGHSVTISCTGTSSDVGDYNYVSWYQQRPGKVPKLLIYDVSKRPSGVPDRFSGSKSGNTASLTISGLQAEDEAIYFCSSYAGNYNVVFGGGTKLTVLG | koff | s⁻¹ | 0.000234 |
| IAPB04 (antibody, human IgG4 S228P, kappa, F234A L235A, V domains shown, IgG4-PAA; also called IAPB4; phage hit B4) VH: QVQLVQSGAEVKKPGSSVKVSCKASGGTFSSYAISWVRQAPGQGLEWMGGISAIFGTANYAQKFQGRVTITADESTSTAYMELSSLRSEDTAVYYCARHLHNGIHLDYWGQGTLVTVSS VL: EIVLTQSPATLSLSPGERATLSCRASQSVSNFLAWYQQKPGQAPRLLIYGASNRATGIPARFSGSGSGTDFTLTISSLEPEDFAVYYCQQGKHWPWTFGQGTKVEIKR | koff | s⁻¹ | 0.0014 |
| IAPB65 (antibody, human IgG4 S228P, kappa, F234A L235A, V domains shown, IgG4-PAA; whole chains; also called IAPB4-HC-G103A; IgG4-PAA, B4 mutant) VH: QVQLVQSGAEVKKPGSSVKVSCKASGGTFSSYAISWVRQAPGQGLEWMGGISAIFGTANYAQKFQGRVTITADESTSTAYMELSSLRSEDTAVYYCARHLHNAIHLDYWGQGTLVTVSS VL: EIVLTQSPATLSLSPGERATLSCRASQSVSNFLAWYQQKPGQAPRLLIYGASNRATGIPARFSGSGSGTDFTLTISSLEPEDFAVYYCQQGKHWPWTFGQGTKVEIKR | koff | s⁻¹ | 0.00341 |
| IAPB54 (antibody, human IgG4 S228P, lambda, F234A L235A, V domains shown, IgG4-PAA; also called 17B04 with human IgG4-PAA) VH: QVQLVQSGSELKKPGASVKVSCKASGYTFNTYAMNWVRQAPGQGLEWMGWINTNTGNPTYAQGFTGRFVFSLDTSVSTAYLQISSLKAEDTAVYYCARRYFDWLLGAFDIWGQGTMVTVSS VL: QSALTQPRSVSGSPGHSVTISCTGTSSDVGDYNYVSWYQQRPGKVPKLLIYDVSKRPSGVPDRFSGSKSGNTASLTISGLQAEDEAIYFCCSYAGNYNVVFGGGTKLTVLG | koff | s⁻¹ | 7.48e-05 |
